// provenance: ChEMBL document CHEMBL2311489

pKi values recorded for D(2) dopamine receptor (Homo sapiens)
pKi: −log10 of the molar value.
TEST_READOUT: pKi

> print(dat)
                                 mol.smiles                           assay.system  test.readout  assay.result
1  O=S(=O)(NCCCCN1CCN(c2cccc(Cl)c2Cl)CC1)c1ccc2cccnc2c1  D(2) dopamine receptor (Homo sapiens)           pKi          7.96
2  O=S(=O)(NCCCN1CCN(c2cccc(Cl)c2Cl)CC1)c1ccc2cccnc2c1  D(2) dopamine receptor (Homo sapiens)           pKi          7.80
3  O=S(=O)(NCCCCN1CCN(c2cccc(Cl)c2Cl)CC1)c1cncc2ccccc12  D(2) dopamine receptor (Homo sapiens)           pKi          8.10
4  O=S(=O)(NCCCCN1CCN(c2cccc(Cl)c2Cl)CC1)c1cnc2ccccc2c1  D(2) dopamine receptor (Homo sapiens)           pKi          8.05
